Field: IC50. Provide a value for each of the compounds that follow.
System: normal human cell fibroblast MRC-5
testMethodNotes: Cell proliferation suppression test, normal cells MRC-5 (SRB staining)
Format: cell-based
runParameters: MRC5, MRC-5 normal fibroblasts, incubated for 3 or 5 days, SRB protein staining, absorbance 550 nm, read-out: Cell proliferation inhibition (IC50; μM) MRC-5

INPUT: Item COc1cccc(-c2nc3cc(-c4ccccc4)cnc3[nH]2)c1 [Example 1] with normal human cell fibroblast MRC-5 - IC50?
OUTPUT: > 25 µM

INPUT: Here is the next compound: COc1ccc(Cc2nc3cc(-c4ccco4)cnc3[nH]2)cc1OC [Example 97]
OUTPUT: > 25 µM

INPUT: Here is the next compound: Clc1ccc(Cc2nc3cc(-c4ccco4)cnc3[nH]2)cc1 [Example 113]
OUTPUT: ≥ 25 µM

INPUT: Here is the next compound: Fc1ccc(/C=C/c2nc3cc(-c4ccco4)ccc3o2)c(F)c1 [Example 219]
OUTPUT: > 25 µM

INPUT: Here is the next compound: COc1cccc(-c2nc3ncc(-c4ccccc4)cc3n2CC2CC2)c1 [Example 202]
OUTPUT: 21 µM

INPUT: Here is the next compound: COc1cccc(-c2nc3ncc(-c4ccccc4)cc3n2Cc2ccccc2O)c1 [Example 157]
OUTPUT: > 25 µM
